measurementTarget: mutant MGL (Homo sapiens, UniProt Q99685, L169S/L176S)
procedureText: MGL ThermoFluor assay - mutant
Format: binding
particulars: ThermoFluor thermal stability binding assay, read-out: MGL mutant ThermoFluor Kd
endpointLabel: Kd (nM)

Below are worked cases with known answers.
O=C(c1nccs1)N1CCN(C2CN(C(=O)c3ncoc3-c3ccc(Cl)cc3)C2)CC1; 6670
O=C(c1ccc(-c2ccccc2)cc1)N1CC(N2CCN(C(=O)C3CCCC3)CC2)C1; 182
O=C(c1nccs1)N1CCN(C2CN(C(=O)c3cccc4oc(-c5ccc(F)cc5)nc34)C2)CC1; 9
O=C(c1ccccc1)N1CCN(C2CN(C(=O)c3ccc(OCc4ccncc4)c(Cl)c3)C2)CC1; 1940
O=C(c1ccc(-c2ccccc2)cc1)N1CC(N2CCN(C(=O)C3CCC3)CC2)C1; 345

I. O=C(c1ccc2c(c1)CCCN2C(=O)C1CCCCC1)N1CC(N2CCN(C(=O)c3nccs3)CC2)C1
II. O=C(c1cscn1)N1CCN(C2CN(C(=O)c3sc4cc(F)ccc4c3Cl)C2)CC1
## Task Please compare: I and II . Report which one has the smaller Kd value. # reply format: chosen label
## Result II
(II: 20 nM, I: 68 nM)

a. Cc1oc(-c2ccccc2)cc1C(=O)N1CC(N2CCN(C(=O)c3nccs3)CC2)C1
b. O=C(c1ccccc1)N1CCN(C2CN(C(=O)c3sc4cc(Br)ccc4c3Cl)C2)CC1
## Task Please compare: a and b . Report which one has the smaller Kd value. # reply format: chosen label
## Result b
(b: 6.9 nM, a: 25 nM)

P. O=C(c1cscn1)N1CCN(C2CN(C(=O)c3cccc4nc(-c5cccc(F)c5)oc34)C2)CC1
Q. O=C(c1cscn1)N1CCN(C2CN(C(=O)c3sc4cc(-c5ccccc5)ccc4c3Cl)C2)CC1
R. COc1cc(C(=O)N2CC(N3CCN(C(=O)c4cscn4)CC3)C2)ccc1-c1cccc(C(F)(F)F)c1
S. CC(C)(C)OC(=O)N1CCC(c2cccc(C(=O)N3CC(N4CCN(C(=O)c5ccccc5)CC4)C3)c2)CC1
## Task Order these by Kd, descending, and give the full ranking. When ranking, write the labels in the order the request describes.
## Result S, P, R, Q
(S: 2590 nM, P: 100 nM, R: 6.7 nM, Q: 3.1 nM)

a. O=C(c1ccccc1)N1CCN(C2CN(C(=O)c3cc4ccc(C(F)(F)F)cc4s3)C2)CC1
b. O=C(c1ccc(OCc2cccc(Br)n2)cc1)N1CC(N2CCN(C(=O)c3cscn3)CC2)C1
## Task Please compare: a and b . Report which one has the smaller Kd value. # reply format: chosen label
## Result a
(a: 92.7 nM, b: 327 nM)

---

measurementTarget: purified wild type MGL (wt-MGLL 6H-11-313) (Homo sapiens)
Sequence (Q99685 1-303): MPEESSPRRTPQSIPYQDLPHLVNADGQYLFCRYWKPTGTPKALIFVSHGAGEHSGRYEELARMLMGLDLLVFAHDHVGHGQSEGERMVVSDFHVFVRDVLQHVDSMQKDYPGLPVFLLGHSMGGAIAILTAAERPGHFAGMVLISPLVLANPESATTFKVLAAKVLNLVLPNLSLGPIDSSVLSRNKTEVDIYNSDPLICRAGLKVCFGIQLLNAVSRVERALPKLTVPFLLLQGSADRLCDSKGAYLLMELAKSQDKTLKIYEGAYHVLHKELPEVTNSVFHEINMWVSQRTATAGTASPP
endpointLabel: IC50 (nM)

Below are worked cases with known answers.
O=C(c1ccc(-c2ccccc2)cc1)N1CC(N2CCN(C(=O)C3CC3)CC2)C1; 173
O=C(c1ccc(Oc2ccc(Br)cn2)cc1)N1CC(N2CCN(C(=O)C(F)(F)F)CC2)C1; 14000
O=C(c1nccs1)N1CCN(C2CN(C(=O)c3cccc4[nH]c(Cc5ccccc5)nc34)C2)CC1; 6790
O=C(c1ccccc1)N1CCN(C2CN(C(=O)c3sc4cc(C(F)(F)F)ccc4c3C3CC3)C2)CC1; 455
Cc1nc2cc(C(=O)N3CC(N4CCN(C(=O)c5nccs5)CC4)C3)ccc2n1C1CCCCC1; 239
O=C(c1ccc(-c2cccc(C(F)(F)F)c2)cc1)N1CC(N2CCN(C(=O)c3cc(Br)cs3)CC2)C1; 9
Cc1nc(-c2ccccc2)sc1C(=O)N1CC(N2CCN(C(=O)c3nccs3)CC2)C1; 67.3
O=C(c1ccc(N2CCOCC2)cc1)N1CC(N2CCN(C(=O)c3nccs3)CC2)C1; 2490
N#Cc1ccccc1-n1ccc2cc(C(=O)N3CC(N4CCN(C(=O)c5nccs5)CC4)C3)ccc21; 15
Cc1cn(-c2ccccc2)c2ccc(C(=O)N3CC(N4CCN(C(=O)c5ccccc5)CC4)C3)cc12; 52

1. O=C(c1ccc(-c2ccccc2)cc1)N1CC(N2CCN(C(=O)c3ccon3)CC2)C1
2. Cc1c(C(=O)N2CC(N3CCN(C(=O)c4ccccc4)CC3)C2)sc2ccc(-c3ccccc3)cc12
## Task Two entries are listed, 1 and 2 . Which one carries the higher IC50? # reply format: chosen label
## Result 1
(1: 950 nM, 2: 22 nM)

---

measurementTarget: MGL (Rattus norvegicus)
Construct: one g rat brain was homogenized using a Polytron homogenizer; from tissue; host or cells: rat brain homogenate
procedureText: 2-AG accumulation assay in rat brain homogenate
Type: biochemical
particulars: rat brain homogenate; compound 10 μM; 2-AG accumulation as percent of vehicle; read-out: Rat Brain 2AG % VehCntrl (%) @ 10 μM
endpointLabel: 2-AG accumulation, % of vehicle control at 10 µM (%)

Below are worked cases with known answers.
O=C(c1ccc2oc(-c3ccccc3)nc2c1)N1CC(N2CCN(C(=O)c3cscn3)CC2)C1; 293
O=C(c1cscn1)N1CCN(C2CN(C(=O)c3ccc(-c4ccc(F)c(Cl)c4)cc3Cl)C2)CC1; 643
O=Cc1cccc(-c2ccc(C(=O)N3CC(N4CCN(C(=O)c5nccs5)CC4)C3)cc2)c1; 122
O=C(c1ccccc1)N1CCN(C2CN(C(=O)c3ccc4c(ccn4-c4ccccc4)c3)C2)CC1; 688
O=C(c1ccc(-c2ccc(F)cc2F)cc1)N1CC(N2CCN(C(=O)c3cscn3)CC2)C1; 652
Cc1cc(-c2ccc(F)c(Cl)c2)ccc1C(=O)N1CC(N2CCN(C(=O)c3cscn3)CC2)C1; 624
CC(C)(C)OC(=O)N1CCc2cc(C(=O)N3CC(N4CCN(C(=O)c5ccccc5)CC4)C3)ccc2C1; 396
Cc1nc(-c2cccs2)sc1C(=O)N1CC(N2CCN(C(=O)c3nccs3)CC2)C1; 582
O=C(c1ccccc1)N1CCN(C2CN(C(=O)c3cc4ccc(-c5ccccc5)cc4s3)C2)CC1; 288
CN(C)S(=O)(=O)c1ccc(-c2ccc(C(=O)N3CC(N4CCN(C(=O)c5nccs5)CC4)C3)cc2)cc1; 104

1. O=C(c1cc2ccc(C(F)(F)F)cc2s1)N1CC(N2CCN(C(=O)c3nccs3)CC2)C1
2. O=C(c1cccc(-c2ccccc2C(F)(F)F)c1)N1CC(N2CCN(C(=O)c3nccs3)CC2)C1
## Task Please compare: 1 and 2 . Report which one has the smaller 2-AG accumulation, % of vehicle control at 10 µM value. # reply format: chosen label
## Result 1
(1: 494%, 2: 744%)

---

measurementTarget: MGL (Rattus norvegicus, UniProt Q8R431)
Construct: one g rat brain was homogenized using a Polytron homogenizer; from tissue; host or cells: rat brain homogenate
Sequence (Q8R431 1-303): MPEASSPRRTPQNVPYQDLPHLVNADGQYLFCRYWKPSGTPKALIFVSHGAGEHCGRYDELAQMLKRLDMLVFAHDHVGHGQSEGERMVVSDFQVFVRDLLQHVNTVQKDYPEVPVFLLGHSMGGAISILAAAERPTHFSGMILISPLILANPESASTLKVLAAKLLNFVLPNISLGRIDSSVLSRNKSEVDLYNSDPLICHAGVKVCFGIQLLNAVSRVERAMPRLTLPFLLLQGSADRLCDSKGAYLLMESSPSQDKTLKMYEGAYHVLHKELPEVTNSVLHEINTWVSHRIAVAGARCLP
procedureText: 2-AG accumulation assay in rat brain homogenate
Type: biochemical
particulars: rat brain homogenate; compound 1 μM; 2-AG accumulation as percent of vehicle; read-out: Rat Brain 2AG % VehCntrl (%) @ 1 μM
endpointLabel: 2-AG accumulation, % of vehicle control at 1 µM (%)

O=C(c1cscn1)N1CCN(C2CN(C(=O)c3cc4c(C(F)(F)F)cccc4s3)C2)CC1; 259
O=C(c1ccc2c(-c3cccc(C(F)(F)F)c3)c[nH]c2c1)N1CC(N2CCN(C(=O)c3cscn3)CC2)C1; 459
O=C(c1cc(-c2ccc(F)cc2)cs1)N1CC(N2CCN(C(=O)c3nccs3)CC2)C1; 252
Cc1cc(-c2ccccc2)ccc1C(=O)N1CC(N2CCN(C(=O)c3cscn3)CC2)C1; 248
CS(=O)(=O)N1CCCc2cc(C(=O)N3CC(N4CCN(C(=O)c5nccs5)CC4)C3)ccc21; 186
O=C(c1ccc(OCc2ccccn2)c(Cl)c1)N1CC(N2CCN(C(=O)c3nccs3)CC2)C1; 441

1. O=C(c1ccccc1)N1CCN(C2CN(C(=O)c3ccc(-c4ccccc4)cc3Cl)C2)CC1
2. O=C(c1ccccc1)N1CCN(C2CN(C(=O)c3ccc4c(ccn4-c4ccc(F)cc4F)c3)C2)CC1
## Task Two entries are listed, 1 and 2 . Which one carries the higher 2-AG accumulation, % of vehicle control at 1 µM? # reply format: chosen label
## Result 2

1. O=C(c1cscn1)N1CCN(C2CN(C(=O)c3sc4cc(C(F)(F)F)c(F)cc4c3Cl)C2)CC1
2. Cc1c(C(=O)N2CC(N3CCN(C(=O)c4cscn4)CC3)C2)sc2cc(C(F)(F)F)ccc12
3. O=C(c1nccs1)N1CCN(C2CN(C(=O)c3sc4c(C(F)(F)F)c(F)ccc4c3Cl)C2)CC1
## Task Order these by 2-AG accumulation, % of vehicle control at 1 µM, descending, and give the full ranking. When ranking, write the labels in the order the request describes.
## Result 2, 3, 1

a. O=C(c1ccccc1)N1CCN(C2CN(C(=O)c3ccc(COc4cccc(Cl)c4)cc3)C2)CC1
b. O=C(c1ccc2nc(-c3ccc(C(F)(F)F)cc3)oc2c1)N1CC(N2CCN(C(=O)c3nccs3)CC2)C1
## Task Two entries are listed, a and b . Which one carries the higher 2-AG accumulation, % of vehicle control at 1 µM? # reply format: chosen label
## Result b

1. O=C(c1cscn1)N1CCN(C2CN(C(=O)c3sc4c(F)c(C(F)(F)F)ccc4c3Cl)C2)CC1
2. O=C(c1nccs1)N1CCN(C2CN(C(=O)c3cc(-c4ccccc4)ccc3F)C2)CC1
## Task Please compare: 1 and 2 . Report which one has the smaller 2-AG accumulation, % of vehicle control at 1 µM value. # reply format: chosen label
## Result 2
(2: 212%, 1: 650%)
